- target: Mu-type opioid receptor (Homo sapiens, UniProt P35372)
- Sequence (P35372 whole entry): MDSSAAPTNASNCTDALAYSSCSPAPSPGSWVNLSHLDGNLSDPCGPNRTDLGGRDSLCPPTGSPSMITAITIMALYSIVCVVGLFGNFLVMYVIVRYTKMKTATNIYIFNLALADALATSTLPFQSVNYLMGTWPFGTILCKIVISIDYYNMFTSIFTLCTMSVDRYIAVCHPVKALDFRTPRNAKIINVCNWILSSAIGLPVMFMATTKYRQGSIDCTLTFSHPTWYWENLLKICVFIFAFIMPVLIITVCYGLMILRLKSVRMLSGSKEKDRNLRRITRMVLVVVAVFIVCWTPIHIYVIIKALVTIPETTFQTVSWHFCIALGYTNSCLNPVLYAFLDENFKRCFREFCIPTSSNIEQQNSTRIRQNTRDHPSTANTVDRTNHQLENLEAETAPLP
- protocol text: DRUGMATRIX: Opiate mu (OP3, MOP) radioligand binding (ligand: [3H] Diprenorphine)
- Type: cell membranes, CHO-K1, Membrane
- test settings: cho-k1; Not Active = under 50% inhibition at 10 µM
recorded metric: IC50

CO[C@@H]1[C@@H](O[C@@H]2O[C@H](C)[C@@H](O[C@H]3C[C@@](C)(O)[C@@H](OC(=O)CC(C)C)[C@H](C)O3)[C@H](N(C)C)[C@H]2O)[C@@H](CC=O)C[C@@H](C)[C@@H](O)/C=C/C=C/C[C@@H](C)OC(=O)C[C@H]1O	Not Active
CC[C@H]1OC(=O)[C@H](C)[C@@H](O[C@H]2C[C@@](C)(OC)[C@@H](O)[C@H](C)O2)[C@H](C)[C@@H](O[C@@H]2O[C@H](C)C[C@H](N(C)C)[C@H]2O)[C@](C)(O)C[C@@H](C)/C(=N\OCOCCOC)[C@H](C)[C@@H](O)[C@]1(C)O	Not Active
